Values were extracted from PubChem BioAssay (Tox21).

- study-system: Androgen receptor (Homo sapiens) (UniProt P10275)
- Sequence (P10275 whole entry, looked up): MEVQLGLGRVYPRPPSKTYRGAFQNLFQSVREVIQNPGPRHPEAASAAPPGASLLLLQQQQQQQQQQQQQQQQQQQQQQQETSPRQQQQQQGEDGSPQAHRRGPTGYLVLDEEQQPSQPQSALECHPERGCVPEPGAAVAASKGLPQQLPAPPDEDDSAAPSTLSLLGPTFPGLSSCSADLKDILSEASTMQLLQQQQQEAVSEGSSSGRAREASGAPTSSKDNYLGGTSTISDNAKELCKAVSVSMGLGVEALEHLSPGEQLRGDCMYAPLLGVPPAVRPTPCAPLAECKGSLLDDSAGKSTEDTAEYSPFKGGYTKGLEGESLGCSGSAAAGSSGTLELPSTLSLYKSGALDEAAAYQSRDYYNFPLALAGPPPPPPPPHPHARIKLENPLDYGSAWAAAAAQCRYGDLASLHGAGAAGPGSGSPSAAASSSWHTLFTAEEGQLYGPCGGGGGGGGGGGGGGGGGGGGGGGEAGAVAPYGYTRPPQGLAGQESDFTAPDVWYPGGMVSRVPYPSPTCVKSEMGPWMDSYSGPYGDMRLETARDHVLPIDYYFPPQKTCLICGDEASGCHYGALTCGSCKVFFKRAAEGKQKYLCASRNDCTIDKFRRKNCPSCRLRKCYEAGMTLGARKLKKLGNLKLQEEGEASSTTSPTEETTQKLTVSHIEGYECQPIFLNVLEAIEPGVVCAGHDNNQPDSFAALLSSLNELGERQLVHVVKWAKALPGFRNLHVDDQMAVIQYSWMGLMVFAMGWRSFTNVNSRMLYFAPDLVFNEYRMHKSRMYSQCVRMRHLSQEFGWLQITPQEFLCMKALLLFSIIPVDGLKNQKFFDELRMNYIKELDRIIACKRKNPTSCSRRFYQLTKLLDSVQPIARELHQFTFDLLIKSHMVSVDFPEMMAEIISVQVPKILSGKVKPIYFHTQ
- method: qHTS assay to identify small molecule antagonists of the androgen receptor (AR) signaling pathway using the MDA cell line (AID 743042; further: nearly all actives have a fitted effect of over 55% in size)
- reported-conditions: MDA-kb2 AR-luc, MMTV luciferase, R1881 antagonist, 16 h; series mostly up to 70.3 µM
Results filed as inconclusive are left out. Calls of active or inactive are those of the source. The call rests on the fitted dose curve; in most records, active means well fitted inhibition curve with a large enough effect in the repeat runs; inconclusive means weak or mixed curves, or effect the other way; inactive means no such curve, though single readings can be large or run the other way.
Outcomes: active, inactive

>>> class_label("CCN(CC)C(=O)N[C@H]1C[C@@H]2c3cccc4[nH]cc(c34)C[C@H]2N(C)C1")
"inactive"
>>> class_label("COC(COC(N)=O)C1=C(N2CC2)C(=O)C(C)=C(N2CC2)C1=O (stereo unspecified)")
"active"
>>> class_label("COC(=O)[C@]12CCC(C)(C)C[C@H]1[C@H]1C(=O)C=C3[C@@]4(C)C=C(C#N)C(=O)C(C)(C)[C@@H]4CC[C@@]3(C)[C@]1(C)CC2")
"active"
>>> class_label("C[C@@H](Cc1ccccc1)N(C)C")
"inactive"
>>> class_label("CC1(C)S[C@@H]2[C@H](N)C(=O)N2[C@H]1C(=O)O")
"inactive"
>>> class_label("COC(=O)[C@@H]1[C@H]2CC[C@@H](C[C@H]1OC(=O)c1ccccc1)N2C")
"inactive"
>>> class_label("Oc1ccc2c3c1O[C@H]1[C@@H](O)CC[C@@]4(O)[C@@H](C2)N(CC2CCC2)CC[C@]314")
"inactive"
>>> class_label("NCC(O)c1cccc(O)c1 (stereo unspecified)")
"inactive"
>>> class_label("c1cc2c(c(NC3=NCCN3)c1)CCCC2")
"inactive"
>>> class_label("C[C@]12CC[C@H](OS(=O)(=O)O)CC1=CC[C@@H]1[C@@H]2CC[C@]2(C)C(=O)CC[C@@H]12")
"inactive"
>>> class_label("Cc1ccccc1-n1c(CF)nc2ccc(N)cc2c1=O")
"inactive"
